assay: Pharmacokinetics of DAPA in healthy rats (alone or co-administered with ARE), plasma by UPLC-MS/MS; type: in vivo, Sprague Dawley (SD) rats; conditions: male, Sprague-Dawley, rat, plasma, po, CDA group: healthy rats, ARE 300 mg/kg intragastric once a day for 7 days + DAPA single dose 1.05 mg/kg on day 7; n = 6, mean ± SD; read-out: MRT(0-t)
PROPERTY: MRT last (h)
Value expressed in h; do not type the unit.

Query string: Look up and state reported MRT last for CCOc1ccc(Cc2cc([C@@H]3O[C@H](CO)[C@@H](O)[C@H](O)[C@H]3O)ccc2Cl)cc1
Result string: 5.16

* * *

assay: Pharmacokinetics of DAPA in healthy rats (alone or co-administered with ARE), plasma by UPLC-MS/MS; assay type: in vivo, Sprague Dawley (SD) rats; conditions: male, Sprague-Dawley, rat, plasma, po, CDA group: healthy rats, ARE 300 mg/kg intragastric once a day for 7 days + DAPA single dose 1.05 mg/kg on day 7; n = 6, mean ± SD
PROPERTY: Tmax (h)
Quick note: give the figure in h, leave out the unit.

Query string: Give the value of Tmax reported for the following: CCOc1ccc(Cc2cc([C@@H]3O[C@H](CO)[C@@H](O)[C@H](O)[C@H]3O)ccc2Cl)cc1
Result string: 2.5

* * *

assay: in vivo; conditions: male, Sprague-Dawley, rat, plasma, po, 1.05 mg/kg, MRT(0-t), MDA-L group: T2DM rats, ARE 300 mg/kg once a day for 7 days + DAPA single dose 1.05 mg/kg on day 7; n=6, mean ± SD
PROPERTY: MRT last (h)
// units = h; emit number, no label

Query string: Consider the compound CCOc1ccc(Cc2cc([C@@H]3O[C@H](CO)[C@@H](O)[C@H](O)[C@H]3O)ccc2Cl)cc1 [DAPA, Dapagliflozin] . State its measured MRT last.
Result string: 7.39

* * *

assay: in vivo; details: male, Sprague-Dawley, rat, plasma, po, 1.05 mg/kg, t max, MD group: T2DM rats, DAPA alone, single intragastric dose 1.05 mg/kg; n = 6, mean ± SD
PROPERTY: Tmax (h)
Just the number please, in h, no unit attached.

Query string: Annotate the compound CCOc1ccc(Cc2cc([C@@H]3O[C@H](CO)[C@@H](O)[C@H](O)[C@H]3O)ccc2Cl)cc1 with its measured Tmax.
Result string: 4

* * *

assay: in vivo; settings: male, Sprague-Dawley, rat, plasma, po, 1.05 mg/kg, t1/2, MDA-L group: T2DM rats, ARE 300 mg/kg once a day for 7 days + DAPA single dose 1.05 mg/kg on day 7; n=6, mean ± SD
PROPERTY: half-life (h)
Response body: numeric value in h, unit text excluded.

Query string: Find the measured half-life of CCOc1ccc(Cc2cc([C@@H]3O[C@H](CO)[C@@H](O)[C@H](O)[C@H]3O)ccc2Cl)cc1 [DAPA, Dapagliflozin] and report it.
Result string: 8.64

* * *

assay: Pharmacokinetics of DAPA in healthy rats (alone or co-administered with ARE), plasma by UPLC-MS/MS; format: in vivo, Sprague Dawley (SD) rats; details: male, Sprague-Dawley, rat, plasma, po, 1.05 mg/kg, CD group: healthy rats, DAPA alone, single intragastric dose 1.05 mg/kg; n = 6, mean ± SD; read-out: C max
PROPERTY: Cmax (ng/mL)
Unit ng/mL implied. Number only.

Query string: Return value of Cmax for input CCOc1ccc(Cc2cc([C@@H]3O[C@H](CO)[C@@H](O)[C@H](O)[C@H]3O)ccc2Cl)cc1 , no commentary.
Result string: 385
